Sourced from patent US20020193383A1

- experimental_target: human 5-HT1A serotonergic receptor (Homo sapiens)
- Sequence (P08908 whole entry): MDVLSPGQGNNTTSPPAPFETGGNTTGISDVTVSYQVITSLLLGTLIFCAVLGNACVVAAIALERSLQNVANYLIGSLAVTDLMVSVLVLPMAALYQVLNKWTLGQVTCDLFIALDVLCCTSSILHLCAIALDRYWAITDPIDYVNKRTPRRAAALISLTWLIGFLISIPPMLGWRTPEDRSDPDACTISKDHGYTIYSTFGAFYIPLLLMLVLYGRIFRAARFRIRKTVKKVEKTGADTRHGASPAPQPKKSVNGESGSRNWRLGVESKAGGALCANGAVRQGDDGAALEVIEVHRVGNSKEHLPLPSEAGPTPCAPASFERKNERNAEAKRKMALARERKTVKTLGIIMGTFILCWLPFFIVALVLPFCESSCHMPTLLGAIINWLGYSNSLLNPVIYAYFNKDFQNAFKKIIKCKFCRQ
- assay_explanation: Binding to recombinant human 5-HT1A receptors ([3H]8-OH-DPAT, HeLa cell membranes)
- details: read-out: Binding affinity for the 5-HT1A receptor, Ki
pKi: −log10 of the molar value.

compound	experimental_target	pKi
COc1cc(O)ccc1N1CCN(CCN(C(=O)C2CCCCC2)c2ccccc2OC(F)(F)F)CC1	human 5-HT1A serotonergic receptor (Homo sapiens)	8.80
COc1cc(OC(C)=O)ccc1N1CCN(CCN(C(=O)C2CCCCC2)c2ccccc2OC(F)(F)F)CC1	human 5-HT1A serotonergic receptor (Homo sapiens)	8.67
COc1cc(OC(=O)C(C)C)ccc1N1CCN(CCN(C(=O)C2CCCCC2)c2ccccc2OC(F)(F)F)CC1	human 5-HT1A serotonergic receptor (Homo sapiens)	8.92
